Attribution: ChEMBL document CHEMBL1129270

test: Plasma Concentration after 90 min of oral administration to mice; assay type: ADME, organism-based; conditions: mouse
PARAMETER_MEASURED: concentration at 1.5 h

The cases that follow already have their concentration at 1.5 h on record.
>>> recorded_value("COCCOC(=O)NC(C(=O)NC(Cc1ccccc1)C(O)CN(CC1CCCCC1)NC(=O)C(NC(=O)OC)C(C)C)C(C)C (stereo not given)")
"< 500 nM"
>>> recorded_value("COC(=O)N[C@H](C(=O)N[C@@H](Cc1ccccc1)C(O)CN(Cc1ccc(OC)cc1)NC(=O)[C@@H](NC(=O)OC)C(C)C)C(C)C (stereo not given in full)")
"< 200 nM"
>>> recorded_value("COC(=O)N[C@H](C(=O)N[C@@H](Cc1ccccc1)C(O)CN(Cc1ccc(C)cc1)NC(=O)[C@@H](NC(=O)OC)C(C)C)C(C)C (stereo not given in full)")
"< 200 nM"
>>> recorded_value("CCOC(=O)NC(C(=O)NN(CC1CCCCC1)C[C@@H](O)[C@H](Cc1ccccc1)NC(=O)C(NC(=O)OCCOC)C(C)C)C(C)C (stereo not given in full)")
"< 200 nM"

# input for lookup
q: Consider the molecule shown here: COCCOC(=O)NC(C(=O)N[C@@H](Cc1ccccc1)[C@H](O)CN(CC1CCCCC1)NC(=O)C(NC(=O)OCCOC)C(C)C)C(C)C (stereo not given in full) What is its recorded concentration at 1.5 h?
a: < 500 nM
